Each recorded value in this set is attributed to patent US20260242478A1.

Target: Anti-CD28 Fab (SEQ ID NOs: 696, 697)
Sequence (VH, as listed by the source, chain 1 of 2): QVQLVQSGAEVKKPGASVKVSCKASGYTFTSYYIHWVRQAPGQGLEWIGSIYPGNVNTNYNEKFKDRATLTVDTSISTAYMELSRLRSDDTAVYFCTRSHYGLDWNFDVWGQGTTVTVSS
Sequence (VL, as listed by the source, chain 2 of 2): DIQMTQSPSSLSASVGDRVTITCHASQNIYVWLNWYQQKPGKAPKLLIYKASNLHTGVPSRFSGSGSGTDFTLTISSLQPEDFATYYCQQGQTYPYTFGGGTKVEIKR
Assay: phage binding ELISA; anti-CD28 Fab on plate pre-incubated with CD28 antigen as competitor
Reported metric: Anti-CD28 Fab signal in the presence of CD28
// no unit, no text: just the number

## Input Look up Anti-CD28 Fab signal in the presence of CD28 of TCSAGFSLQLSICL [Phage-1469 peptide (Peptide-92 library, SEQ ID NO: 1765)] and report it.
## Output 0.06

## Input Return the recorded Anti-CD28 Fab signal in the presence of CD28 value; entry: GCAAGAHYPWPFCL [Phage-1472 peptide (Peptide-92 library, SEQ ID NO: 1768)]
## Output 0.06

## Input Supply Anti-CD28 Fab signal in the presence of CD28 value. Item: TCAAGAVWEWPMCF [Phage-1473 peptide (Peptide-92 library, SEQ ID NO: 1769)]
## Output 0.07

## Input Identify measured Anti-CD28 Fab signal in the presence of CD28 corresponding to YCSAGAQWPWPICL [Phage-1461 peptide (Peptide-92 library, SEQ ID NO: 1757)]
## Output 0.08
